Each recorded value in this set is attributed to patent US8658646B2.

Target entity: JAK3: Recombinant human kinase domain (Homo sapiens)
Construct: JAK3: Recombinant human kinase domain from Millipore (Cat #14-629) or prepared
Sequence (P52333 822-1111 limits assumed): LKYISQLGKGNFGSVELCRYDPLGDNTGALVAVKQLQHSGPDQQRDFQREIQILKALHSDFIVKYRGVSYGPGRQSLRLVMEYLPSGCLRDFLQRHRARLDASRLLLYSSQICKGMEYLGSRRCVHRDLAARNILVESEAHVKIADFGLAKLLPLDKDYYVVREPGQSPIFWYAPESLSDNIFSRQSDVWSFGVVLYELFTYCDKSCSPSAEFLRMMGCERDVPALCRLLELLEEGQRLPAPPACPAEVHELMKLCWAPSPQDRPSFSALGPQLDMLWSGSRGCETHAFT
Protocol summary: Determination of IC50 of Janus Kinase (JAK) inhibition, radioactive end-point 33P-ATP assay, JAK3
Experimental conditions: ATP 1.5 uM, peptide 50 uM, 20 minutes, read-out: JAK3-INHIB-DR/v1~NO ADDITIVE~Enzyme_Conc = 100
Quantity measured: IC50 (nM)

Guide cases for IC50, answers given:
Compound	Units of measure	IC50
C[C@@H](NC(=O)c1c[nH]c2ncc(-n3cnc4cc(Cl)ccc43)nc12)C(=O)N1CC(C#N)C1	nM	144
CC(C)NC(=O)c1c[nH]c2ncc(-c3nn(Cc4nccn4C)c4cc(Cl)ccc34)nc12	nM	4.46
CC[C@@H](COC)NC(=O)c1c[nH]c2ncc(-c3nn(C)c4cc(Cl)ccc34)nc12	nM	3.56
COC[C@H](C)NC(=O)c1c[nH]c2ncc(-c3nn(Cc4ccc(N5CCOCC5)nc4)c4cc(F)ccc34)nc12	nM	0.725
CC(NC(=O)c1c[nH]c2ncc(-c3nn(C)c4cc(F)ccc34)nc12)[C@H]1C[C@@H](O)C1 (stereo partly shown)	nM	19.7

I = CC(C)(C)NC(=O)c1c[nH]c2ncc(-c3nn(CCCN4CC(F)(F)C4)c4ccc(OC(F)F)cc34)nc12
II = CC(NC(=O)c1c[nH]c2ncc(-c3nn(C)c4cc(Cl)ccc34)nc12)c1nccn1C (stereo not shown)
Identify the item whose IC50 is the smaller number: I or II Please indicate the selected item by its label. I
(I: 78.7 nM, II: 178 nM)
